Target: IRAK4 kinase protein (Homo sapiens)
Sequence (Q9NWZ3 1-460): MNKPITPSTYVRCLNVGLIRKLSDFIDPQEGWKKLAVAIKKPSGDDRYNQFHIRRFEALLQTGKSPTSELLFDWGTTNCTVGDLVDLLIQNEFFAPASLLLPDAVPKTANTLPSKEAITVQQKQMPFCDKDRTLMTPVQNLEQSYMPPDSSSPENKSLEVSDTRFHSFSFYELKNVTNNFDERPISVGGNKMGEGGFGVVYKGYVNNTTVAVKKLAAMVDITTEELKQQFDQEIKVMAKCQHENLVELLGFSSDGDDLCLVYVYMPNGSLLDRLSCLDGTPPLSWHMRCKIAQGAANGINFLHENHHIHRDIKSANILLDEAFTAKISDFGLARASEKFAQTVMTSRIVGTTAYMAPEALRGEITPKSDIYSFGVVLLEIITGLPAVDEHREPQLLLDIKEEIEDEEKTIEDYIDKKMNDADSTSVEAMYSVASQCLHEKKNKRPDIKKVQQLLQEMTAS
pIC50: −log10 of the molar value.
What pIC50 was measured for each of the following?

Record NC(=O)c1cnc2c(ccn2-c2cc3c(C(F)F)nn(C4CCCCC4)c3cn2)c1 [Compound C5ii] / IRAK4 kinase protein (Homo sapiens), pIC50 recorded as 5.30 to 6.00

Record FC(F)c1nn(C2CCCCC2)c2cnc(-n3ccc4ccc(N5CCOCC5)nc43)cc12 [Compound C1] / IRAK4 kinase protein (Homo sapiens), pIC50 recorded as 5.00 to 5.30

Record N#Cc1cnc2c(-c3cc4c(C(F)F)nn(C5CCCCC5)c4cn3)cnn2c1 [Compound C3i] / IRAK4 kinase protein (Homo sapiens), pIC50 recorded as 5.30 to 6.00
